Source of measurements: PubChem BioAssay (NCATS)

assay-overview: qHTS of pediatric cancer cell lines to identify multiple opportunities for drug repurposing: Primary screen for A673 cells (AID 1347092); note: nearly all actives have a fitted effect of over 45% in size; note: potency is the fitted concentration of half-maximal effect
measurement-conditions: A673 Ewing sarcoma viability, CellTiter-Glo ATP luminescence, 48 h; series mostly up to 46 µM
Inconclusive results are not listed. Activity calls are given as the source filed them. Calls come from the whole dose curve; as a rule, active = well fitted cell-killing curve with a large enough effect; inconclusive = small, poorly fitted or top-dose-only effect; inactive = no such curve, though single readings can be large or run the other way.
value-kind: Potency

>>> endpoint_value("CC(C)CN(C[C@@H](O)[C@H](Cc1ccccc1)NC(=O)O[C@H]1CO[C@H]2OCC[C@H]21)S(=O)(=O)c1ccc(N)cc1")
"5900 nM (active)"
>>> endpoint_value("Cn1cnc(-c2cc3nccc(Oc4ccc(NC(=S)NC(=O)Cc5ccccc5)cc4F)c3s2)c1")
"29600 nM (active)"
>>> endpoint_value("CN(C)CCN(Cc1ccc(Cl)cc1)c1ccccn1")
"18700 nM (active)"
>>> endpoint_value("Nc1ccc(-c2ccc3ncc4ccc(=O)n(-c5cccc(C(F)(F)F)c5)c4c3c2)cn1")
"3 nM (active)"
>>> endpoint_value("COc1ccc2c(c1)CC[C@H]1[C@@H]2CC[C@]2(C)[C@@H](NCCCCCCN3C(=O)C=CC3=O)CC[C@H]12")
"inactive"
>>> endpoint_value("O=C(NCCCCN1CCOCC1)c1cc2ccccc2o1")
"inactive"
>>> endpoint_value("CN1C(=O)C(Cc2c[nH]c3ccccc23)NC1=S (stereo not given)")
"inactive"
>>> endpoint_value("COc1cc2ncnc(Nc3cc(Br)c(O)c(Br)c3)c2cc1OC")
"11.8 nM (active)"
>>> endpoint_value("CC[C@H](C)n1cc(C)c2c(C(=O)NCc3c(C)cc(C)[nH]c3=O)cc(-c3ccc(N4CCNCC4)nc3)cc21")
"1480 nM (active)"
>>> endpoint_value("N#CC(=C1Nc2ccccc2S1)c1ccnc(OCc2ccc(CN3CCOCC3)cc2)n1")
"23.5 nM (active)"
